- Substrate: T1, SSB (UniProt P05455)
- T1 sequence (looked up): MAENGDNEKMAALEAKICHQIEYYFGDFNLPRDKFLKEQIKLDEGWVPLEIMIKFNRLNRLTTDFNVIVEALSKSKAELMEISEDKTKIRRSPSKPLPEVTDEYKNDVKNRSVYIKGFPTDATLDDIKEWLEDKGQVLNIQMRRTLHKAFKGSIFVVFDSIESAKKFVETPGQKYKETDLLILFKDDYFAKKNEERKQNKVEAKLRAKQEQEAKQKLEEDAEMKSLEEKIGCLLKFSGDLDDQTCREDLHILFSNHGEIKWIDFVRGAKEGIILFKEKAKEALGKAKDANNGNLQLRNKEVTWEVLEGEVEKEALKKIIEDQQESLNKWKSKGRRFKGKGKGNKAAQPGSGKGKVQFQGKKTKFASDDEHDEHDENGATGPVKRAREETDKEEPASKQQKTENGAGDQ
- Assay name: AtheNA, Ab 25 ug/ml
Label Met when Athena reading (relative luminescence units) is strictly below 8; at or above that, label Not met.

Known results for binders:
Binder: CH236_4A/293i (antibody, from a related filing, V domains shown) VH: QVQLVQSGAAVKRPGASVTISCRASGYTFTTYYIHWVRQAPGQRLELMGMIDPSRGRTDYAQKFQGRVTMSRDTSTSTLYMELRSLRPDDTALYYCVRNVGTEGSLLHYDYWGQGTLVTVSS VL: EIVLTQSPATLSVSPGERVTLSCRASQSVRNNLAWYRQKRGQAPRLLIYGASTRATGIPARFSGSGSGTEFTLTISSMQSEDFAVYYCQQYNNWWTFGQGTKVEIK
Classification: Not met
--
Binder: CH240_4A/293i (antibody, from a related filing, V domains shown) VH: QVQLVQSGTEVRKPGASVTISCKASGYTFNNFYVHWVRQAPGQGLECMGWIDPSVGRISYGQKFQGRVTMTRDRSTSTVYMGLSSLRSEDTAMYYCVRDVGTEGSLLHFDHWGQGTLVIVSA VL: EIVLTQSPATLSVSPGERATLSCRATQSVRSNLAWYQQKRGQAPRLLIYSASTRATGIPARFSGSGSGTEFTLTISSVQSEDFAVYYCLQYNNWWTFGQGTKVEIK
Classification: Not met
--
Binder: CH235_4A (antibody, from a related filing, V domains shown) VH: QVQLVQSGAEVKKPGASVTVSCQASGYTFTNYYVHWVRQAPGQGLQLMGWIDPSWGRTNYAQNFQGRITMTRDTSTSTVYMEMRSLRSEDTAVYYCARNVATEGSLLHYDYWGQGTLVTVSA VL: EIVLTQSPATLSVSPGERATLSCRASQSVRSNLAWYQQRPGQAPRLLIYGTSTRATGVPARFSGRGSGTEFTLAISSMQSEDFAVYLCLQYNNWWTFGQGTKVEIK
Classification: Met

Attention now turns to another entry.
Would you kindly verify if Athena reading (relative luminescence units) of CH241 (antibody, from a related filing, V domains shown) VH: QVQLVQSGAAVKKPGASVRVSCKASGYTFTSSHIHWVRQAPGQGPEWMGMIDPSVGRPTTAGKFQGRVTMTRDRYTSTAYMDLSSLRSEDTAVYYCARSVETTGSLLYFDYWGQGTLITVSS VL: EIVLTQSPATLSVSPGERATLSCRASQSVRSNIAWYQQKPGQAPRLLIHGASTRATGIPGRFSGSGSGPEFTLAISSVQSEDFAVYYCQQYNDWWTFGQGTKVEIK is strictly less than 8?
Met
